B1: TPR t1 (parent)
chain: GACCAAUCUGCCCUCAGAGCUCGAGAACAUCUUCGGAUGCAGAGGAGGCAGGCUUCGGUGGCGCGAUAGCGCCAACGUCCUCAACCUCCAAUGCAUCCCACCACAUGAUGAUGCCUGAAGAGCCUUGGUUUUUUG

# Variants of: B1
# Test Summary: polymerase ribozyme fitness, log enrichment relative to wild type (log ratio); higher = more active; in vitro selection for triplet polymerase activity
Category key, based on recorded polymerase ribozyme fitness (log ratio): c1 (below -5), c2 (-5 to below -2), c3 (-2 or more)

# bin lookup: classify U78A U109C by its polymerase ribozyme fitness (log ratio)
c2

Place this variant in its band: A50U C56U C64U U78C C85A U109A
c1
